# SYSTEM NAME: Serine/threonine-protein kinase Nek3 (Homo sapiens) (UniProt P51956)
# Sequence (P51956 whole entry): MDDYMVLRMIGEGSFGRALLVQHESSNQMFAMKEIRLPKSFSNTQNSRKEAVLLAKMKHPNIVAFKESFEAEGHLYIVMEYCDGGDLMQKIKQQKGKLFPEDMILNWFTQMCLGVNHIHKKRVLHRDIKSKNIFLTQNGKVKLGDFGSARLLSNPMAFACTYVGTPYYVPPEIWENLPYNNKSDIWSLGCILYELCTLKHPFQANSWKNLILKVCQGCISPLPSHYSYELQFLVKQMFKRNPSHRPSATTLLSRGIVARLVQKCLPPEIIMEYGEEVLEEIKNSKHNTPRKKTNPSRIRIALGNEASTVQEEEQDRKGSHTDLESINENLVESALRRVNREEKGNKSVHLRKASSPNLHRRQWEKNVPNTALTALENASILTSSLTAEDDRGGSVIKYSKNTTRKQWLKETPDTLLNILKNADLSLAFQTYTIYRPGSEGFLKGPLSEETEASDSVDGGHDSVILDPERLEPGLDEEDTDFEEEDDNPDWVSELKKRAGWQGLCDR
# TEST SETTINGS: at 10 µM
# Description: Millipore: Percentage of residual kinase activity of NEK3 at 10uM relative to control. Control inhibitor: Phosphoric acid* at 0.3uM. Buffer: 8 mM MOPS pH 7.0, 0.2 mM EDTA
// NB: equality with 80% counts as rule not met; only residual activity strictly below is rule met

In [3]: df
Out[3]:
                              record_smiles   class_label
0  NC(=O)c1ccc(-c2nc(-c3ccc4c(c3)OCCO4)c(-c3ccccn3)[nH]2)cc1  rule not met

Exercise: Say whether its residual activity is strictly beneath 80%. Entry: CC(C)c1nn(-c2c(Cl)cccc2Cl)c2nc(Cc3ccc(OCCO)cc3)[nH]c(=O)c12
Key: rule not met

Exercise: Say whether its residual activity is strictly beneath 80%. Entry: O=C(CCCc1ccc(-c2ccccc2F)cc1)Nc1ccc(O)cc1
Key: rule not met

Exercise: Say whether its residual activity is strictly beneath 80%. Entry: Nc1n[nH]c2nc3ccccc3nc12
Key: rule not met
